Reference source for all entries: BindingDB's records for doi:10.1021/jm00076a030

molecular target: Leukotriene B4 receptor (Cavia porcellus); assay: Tested for inhibition of specific binding of [3H]LTB4 to guinea pig lung membranes expressing LTB4 receptor
RESULT TYPE: Ki (nM)

[a] CCc1cc(-c2ccccc2)c(O)cc1OCCCOc1ccc2c(=O)c3cc(C(=O)O)ccc3oc2c1CCC(=O)O
[b] CCc1cc(-c2ccccc2)c(O)cc1OCCCOc1ccc2c(=O)c3ccccc3oc2c1CCC(=O)O
For the pair a and b , which entry has the numerically smaller recorded Ki? Write down the label attached to your selection. a
